Ref: patent US11858910B2

- protocol summary: Pharmacokinetic evaluation after intravenous or gavage administration to dogs
- Format: in vivo, Beagle dogs
- test parameters: Beagle, dog, plasma, iv; dogs, i.v group, 1 mg/kg; read-out: AUCINF
measured parameter: AUC(0-inf) (ng·h/mL)
The answer is to be given in ng·h/mL; state only the numeric part.

Could you tell me which AUC(0-inf) is on file for `CN1CCC(=C(F)c2cccc(NC(=O)c3c(F)cc(F)cc3F)n2)CC1` ?
660

* * *

- protocol summary: Pharmacokinetic evaluation after intravenous or gavage administration to rats
- Format: in vivo, SD rats
- test parameters: SD, rat, in vivo, iv, 1 mg/kg
measured parameter: Tmax (min)
The reply should contain only the number, in min.

For the compound shown here, `CCN1CCC(=C(F)c2cccc(NC(=O)c3c(F)cc(F)cc3F)n2)CC1` , give the reported Tmax.
30
